Listing of entries alongside the reported remaining activity at 0.1 µM.
assayed system: MPO (Homo sapiens, UniProt P05164)
Construct: made in house
Sequence (P05164 49-745): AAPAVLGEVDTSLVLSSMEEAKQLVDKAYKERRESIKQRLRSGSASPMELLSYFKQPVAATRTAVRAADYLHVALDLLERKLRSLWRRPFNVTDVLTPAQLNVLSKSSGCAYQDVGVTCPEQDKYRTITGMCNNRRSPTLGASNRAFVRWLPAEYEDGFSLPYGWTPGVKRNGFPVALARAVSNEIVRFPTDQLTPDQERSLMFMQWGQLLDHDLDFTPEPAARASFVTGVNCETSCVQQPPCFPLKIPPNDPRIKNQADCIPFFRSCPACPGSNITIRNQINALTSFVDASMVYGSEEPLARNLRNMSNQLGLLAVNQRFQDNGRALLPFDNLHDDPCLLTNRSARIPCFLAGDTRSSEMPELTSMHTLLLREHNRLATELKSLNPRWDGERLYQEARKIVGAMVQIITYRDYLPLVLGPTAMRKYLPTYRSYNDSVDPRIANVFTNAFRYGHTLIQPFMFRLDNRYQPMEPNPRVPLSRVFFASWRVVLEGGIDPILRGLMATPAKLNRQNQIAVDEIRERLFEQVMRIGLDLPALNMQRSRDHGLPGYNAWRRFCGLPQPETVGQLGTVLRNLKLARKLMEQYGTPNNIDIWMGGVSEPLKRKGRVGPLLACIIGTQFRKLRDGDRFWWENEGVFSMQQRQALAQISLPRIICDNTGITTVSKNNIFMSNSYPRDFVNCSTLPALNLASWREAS
protocol details: Inhibition of LDL oxidation by MPO, ELISA with Mab AG9
Format: biochemical
test conditions: 5 min, pH 7.2, read-out: LDL oxidation (%)
Could you give me the number in %? Just the number is fine.

Examples with answers:
compound: Fc1ccc2[nH]cc(CCN3CCCC3)c2c1
remaining activity at 0.1 µM [%]: 47.9

compound: CN(C)CCc1c[nH]c2ccc(F)cc12
remaining activity at 0.1 µM [%]: 64.2

compound: CCN(CC)CCc1c[nH]c2ccc(F)cc12
remaining activity at 0.1 µM [%]: 60.2

Moving on to another compound below.
Lab note: compound NCCc1c[nH]c2ccc(F)cc12 [Compound A, 5-fluorotryptamine, reference compound] tested on MPO (Homo sapiens, UniProt P05164); recorded remaining activity at 0.1 µM was 111
